- Subject of test: prostate-specific membrane antigen (PSMA) (Homo sapiens, UniProt Q04609)
- Construct: gene FOLH1; extracellular domain of human PSMA (rhPSMA; amino acids 44–750)
- Sequence (Q04609 44-750): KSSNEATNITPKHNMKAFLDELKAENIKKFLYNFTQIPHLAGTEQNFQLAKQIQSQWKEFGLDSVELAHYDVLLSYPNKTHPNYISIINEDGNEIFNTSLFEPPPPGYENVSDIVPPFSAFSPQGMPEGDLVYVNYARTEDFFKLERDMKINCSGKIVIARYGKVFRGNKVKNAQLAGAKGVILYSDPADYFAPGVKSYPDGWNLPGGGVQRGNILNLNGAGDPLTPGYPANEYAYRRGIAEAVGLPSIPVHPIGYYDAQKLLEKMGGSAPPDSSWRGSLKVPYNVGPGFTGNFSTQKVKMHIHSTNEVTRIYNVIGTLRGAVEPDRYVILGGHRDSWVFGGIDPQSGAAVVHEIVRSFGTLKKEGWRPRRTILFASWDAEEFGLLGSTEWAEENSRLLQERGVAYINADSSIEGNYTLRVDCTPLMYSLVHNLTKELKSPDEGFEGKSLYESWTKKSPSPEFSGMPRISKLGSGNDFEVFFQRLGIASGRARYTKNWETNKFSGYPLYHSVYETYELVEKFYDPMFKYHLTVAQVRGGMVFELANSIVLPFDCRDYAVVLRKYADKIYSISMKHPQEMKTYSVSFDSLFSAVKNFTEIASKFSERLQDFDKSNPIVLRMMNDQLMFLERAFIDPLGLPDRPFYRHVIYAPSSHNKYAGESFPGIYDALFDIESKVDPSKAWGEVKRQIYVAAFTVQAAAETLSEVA
- Assay method text: fluorescence saturation binding ([…]) with rhPSMA; IC50 from […]H-NAAG radioenzymatic assay
- Assay type: biochemical
pIC50: −log10 of the molar value.
Result type: pIC50

{"columns": ["Smiles string", "Subject of test", "pIC50"],
 "data": [
  ["COC(=O)CCN1CCCc2cc(C=C(C#N)C(=O)NCCCC[C@H](NC(=O)N[C@@H](CNC(=O)C(=O)O)C(=O)O)C(=O)O)ccc21", "prostate-specific membrane antigen (PSMA) (Homo sapiens, UniProt Q04609)", 9.93],
  ["COC(=O)CCN1CCCc2cc(-c3ccc(C=C(C#N)C(=O)NCCCC[C@H](NC(=O)N[C@@H](CNC(=O)C(=O)O)C(=O)O)C(=O)O)s3)ccc21", "prostate-specific membrane antigen (PSMA) (Homo sapiens, UniProt Q04609)", 10.00]
]}
